Exercise: for every item that follows, state its recorded pIC50.
system: IGROV1; assay: NCI 60 five-dose screen IGROV1; assay type: cell-based; settings: Homo sapiens, IGROV-1, five-dose
Friendly reminder that pIC50 comes from taking -log10 of the concentration in mol/L.

Reported pIC50, compound FC(F)(F)c1cc2c(Cl)ncnc2n1CCN1CCCCC1 [NUCC-0226679] : ____
5.36

Look up pIC50: FC(F)(F)CN1CCN(CCn2c(C(F)(F)F)cc3c(Cl)ncnc32)CC1 [NUCC-0226683]
5.50

Please give the measured pIC50 for this compound: FC(F)(F)c1cc2c(Cl)ncnc2n1CCC1CCOCC1 [NUCC-0226674]
5.50

Return reported pIC50; argument: OC1CCC(Cn2c(C(F)(F)F)cc3c(Cl)ncnc32)CC1 (centres unmarked) [NUCC-0226689]
5.46

Item under review: FC(F)(F)c1cc2c(Cl)ncnc2n1CCN1CCOCC1 [NUCC-0226680] . Reported pIC50?
5.40
